- tgt: T1, MLDSR (GST-MLDSR) (Rhodococcus jostii RHA1, UniProt A0A1H4Y2R3 2-168)
- T1 sequence: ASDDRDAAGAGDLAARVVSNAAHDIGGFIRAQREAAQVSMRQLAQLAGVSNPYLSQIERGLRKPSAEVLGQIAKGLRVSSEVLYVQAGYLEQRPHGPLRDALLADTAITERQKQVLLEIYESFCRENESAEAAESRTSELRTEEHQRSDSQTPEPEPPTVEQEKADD
- assay text: EMSA; rough estimate by authors from Fig. 5b; EMSA: 20 mM Tris-HCl pH 7.5, 150 mM NaCl, 5 mM MgCl2, 1 mM EDTA, 1 mM DTT, 4% glycerol, 24 C or room temperature, 30-40 min; SPR: 20 mM Tris-HCl pH 7.5, 150 mM
- experimental parameters: protein: recombinant; tags: N-terminal GST; blunt
pKd: −log10 of the molar value.
quantity name: pKd

Record summary for 43 bp (motif 1+2) (dsDNA) DNA 1: TCCGCTAGCTGGGTGCTAACAGAGTGCTTGCAATTGCTAGCAC DNA 2: GTGCTAGCAATTGCAAGCACTCTGTTAGCACCCAGCTAGCGGA : reported pKd = ~6.35

Reference for the values: paper PMC5504291
